System: L1210 leukemia ip in BDF1 mice, survival T/C
Assay: NCI In Vivo Anticancer Drug Screen. Data for tumor model L1210 Leukemia (intraperitoneal) in B6D2F1 (BDF1) mice
Settings: endpoint: mean survival time; dose: 12.5 mg/kg/injection; schedule: Q04DX003 (ip); vehicle: Klucel (hydroxypropylcellulose) (HPC); higher = longer survival
Procedure: The antitumor activity of compounds was measured in mice bearing transplantable tumors. Survival or tumor size were measured and the results are expressed as the measurement made in the treated group (T) divided by the measurement made in the vehicle treated control group (C). The tumor model used in this assay is L1210 Leukemia (intraperitoneal) in B6D2F1 (BDF1) mice
Inconclusive results and toxic doses are left out.
Consider the following compounds; for each one, report its T/C.

{"COMPOUND": "CC(C)=CCC(CCN1CCOCC1)(C(N)=O)c1cccc2ccccc12 (stereo not drawn)", "VALUE MEASURED": "94 % of control"}
{"COMPOUND": "CCN(CC)Cc1cc(Nc2nc(/C=C/c3ccc(Cl)cc3)nc(Cl)c2-c2ccc(Cl)cc2)ccc1O", "VALUE MEASURED": "95 % of control"}

Field: next compound
Value lookup for T/C; key = `CCC[CH2][Hg][O]C(C)=O`
92 % of control

====

test system: L1210 leukemia ip in BDF1 mice, survival T/C; experiment: NCI In Vivo Anticancer Drug Screen. Data for tumor model L1210 Leukemia (intraperitoneal) in B6D2F1 (BDF1) mice; settings: endpoint: mean survival time; dose: 100.0 mg/kg/injection; schedule: Q01DX001 (ip); vehicle: Klucel (hydroxypropylcellulose) (HPC); higher = longer survival
Toxic doses and inconclusive results are not listed.
METRIC: T/C

Record excerpt, results attached:
{"COMPOUND": "CC(=O)OCC1OC(NC(=O)NCCCl)C(OC(C)=O)C(OC(C)=O)C1OC(C)=O (stereo unspecified)", "TGT": "L1210 leukemia ip in BDF1 mice, survival T/C", "METRIC": "T/C", "VALUE MEASURED": "101 % of control"}
{"COMPOUND": "Oc1ccc2ccccc2c1C(c1ccccc1)N1CCCCC1 (stereo unspecified)", "TGT": "L1210 leukemia ip in BDF1 mice, survival T/C", "METRIC": "T/C", "VALUE MEASURED": "94 % of control"}
{"COMPOUND": "O=C(NCCCCCCNC(=O)N(O)C12CC3CC(CC(C3)C1)C2)N(O)C12CC3CC(CC(C3)C1)C2", "TGT": "L1210 leukemia ip in BDF1 mice, survival T/C", "METRIC": "T/C", "VALUE MEASURED": "95 % of control"}
{"COMPOUND": "O=C(O)C1(c2ccccc2)OC1c1ccccc1 (stereo unspecified)", "TGT": "L1210 leukemia ip in BDF1 mice, survival T/C", "METRIC": "T/C", "VALUE MEASURED": "93 % of control"}
{"COMPOUND": "NC(=O)c1[nH]cnc1/N=N/N(CCCl)Cc1ccccc1", "TGT": "L1210 leukemia ip in BDF1 mice, survival T/C", "METRIC": "T/C", "VALUE MEASURED": "111 % of control"}
{"COMPOUND": "Cc1ccc(O)c(-c2ccccc2)c1", "TGT": "L1210 leukemia ip in BDF1 mice, survival T/C", "METRIC": "T/C", "VALUE MEASURED": "100 % of control"}
{"COMPOUND": "O=c1cc(NCc2ccccc2)[nH]c(=O)[nH]1", "TGT": "L1210 leukemia ip in BDF1 mice, survival T/C", "METRIC": "T/C", "VALUE MEASURED": "97 % of control"}
{"COMPOUND": "C=CCNC(=O)NCCSC(=O)SCCCC", "TGT": "L1210 leukemia ip in BDF1 mice, survival T/C", "METRIC": "T/C", "VALUE MEASURED": "103 % of control"}

Provide T/C for all items below, preserving their order.
1. COc1cc(NC(=O)CC(C)=O)cc2c(C)cc(=O)[nH]c12
2. CCOC(=O)c1ccc(N=NN(C)C(C)CC)cc1 (stereo unspecified)
3. O=C(O)CC(NCc1ccccc1)C1CCCCC1 (stereo unspecified)

1. 104 % of control
2. 113 % of control
3. 95 % of control

Report T/C for every entry below.
1. COc1ccccc1-n1c(=O)c(N=Nc2ccccc2C)c(O)n(-c2ccccc2Cl)c1=S
2. CCC(Cl)COP(=O)(CC(Cl)CC)OC(C(C)C)P(=O)(OCC(Cl)CC)OCC(Cl)CC (stereo unspecified)

102 % of control
108 % of control

Need T/C for each of these compounds.
1. CC(C)CCC[C@@H](C)[C@H]1CC[C@H]2[C@@H]3CC[C@H]4C[C@H]5N[C@H]5C[C@]4(C)[C@H]3CC[C@]12C
2. NC(CO)C(O)c1ccc(-c2ccccc2)cc1 (stereo unspecified)
3. O=C(/C=C(\Cl)c1ccc2c(c1)OCO2)OC/C=C\c1ccc2c(c1)OCO2
4. Nc1ncnc2nc(-c3cc(Cl)c(OCc4ccccc4)c(Cl)c3)[nH]c12
5. C=C(C)COc1ccc(Nc2ccccc2)cc1
6. CCOC(=O)C(CC(OCC)OCC)C1=NC(C)(C)CC(C)O1 (stereo unspecified)
7. CC1(C)OCC(C(OC(=O)c2ccc([N+](=O)[O-])cc2)C(OC(=O)c2ccc([N+](=O)[O-])cc2)C2COC(C)(C)O2)O1 (stereo unspecified)

93 % of control
94 % of control
93 % of control
100 % of control
92 % of control
105 % of control
103 % of control

Quick batch: T/C for everything below.
1. c1ccc2c(CCCc3nccc4ccccc34)nccc2c1
2. CCOc1ccc(-n2c(=O)c(N=Nc3ccccc3OC)c(O)n(-c3ccccc3OC)c2=S)cc1
3. Nc1nc(-c2ccc(O)cc2)nc2[nH]ncc12
4. Cc1ccc(-c2oc(-c3ccc(C)cc3)c3cc(C)c(C)cc23)cc1
5. C/C(CCCCCCCCC#N)=N/NC(N)=O
6. Nc1ncnc2nc(-c3ccc(-c4ccccc4)cc3)[nH]c12

1. 102 % of control
2. 100 % of control
3. 91 % of control
4. 87 % of control
5. 103 % of control
6. 88 % of control
